tested on: MCF7 breast; assay: NCI tumour cell line growth inhibition, 48 h

{"COMPOUND": "COC(=O)c1ccc2c(c1)nc(-c1cc3ccccc3[nH]c1=O)n2-c1cc(C(C)(C)C)[nH]n1", "TGI": "> 100 µM"}
{"COMPOUND": "CC(N)C(C)Cc1ccccc1 (stereo not drawn)", "TGI": "> 100 µM"}
{"COMPOUND": "CC(C)CCOc1ccc(-c2n[nH]c(C(F)(F)F)c2-c2cncc(C#N)c2)c(O)c1", "TGI": "> 100 µM"}
{"COMPOUND": "O=c1cc(N2CCOCC2)[nH]c(=O)n1-c1cccc(C(F)(F)F)c1", "TGI": "> 100 µM"}
{"COMPOUND": "CC1(C23CC4CC(CC(C4)C2)C3)n2c(=O)n(-c3ccccc3)c(=O)n2C1(C)C12CC3CC(CC(C3)C1)C2 (stereo not drawn)", "TGI": "> 100 µM"}
{"COMPOUND": "CCC1=CC2CN3CCc4c([nH]c5ccccc45)C(C(=O)OC)(C2)C13 (stereo not drawn)", "TGI": "95.4 µM"}
{"COMPOUND": "CN1CCCNc2c(c(=O)c2=O)NCCCN(C)CCCNc2c(c(=O)c2=O)NCCCN(C)CCCNc2c(c(=O)c2=O)NCCCN(C)CCCNc2c(c(=O)c2=O)NCCCN(C)CCCNc2c(c(=O)c2=O)NCCCN(C)CCCNc2c(c(=O)c2=O)NCCCN(C)CCCNc2c(c(=O)c2=O)NCCC1", "TGI": "19.5 µM"}
{"COMPOUND": "CCOC(=O)c1sc2nc3sc(N=Nc4ccc(Cl)cc4)c(O)n3c(=S)c2c1C", "TGI": "> 100 µM"}
{"COMPOUND": "CCCCC(=O)Nc1ccc2cc(C(=O)OC)c(ON3C(=O)c4ccccc4C3=O)nc2n1", "TGI": "> 100 µM"}
{"COMPOUND": "C[C@]12CC[C@@H]3c4cc(OCC(F)(F)F)c(O)cc4C(=O)C[C@H]3[C@@H]1CC[C@@H]2O", "TGI": "> 100 µM"}
{"COMPOUND": "O=C1CN2Cc3cc(N4CCOCC4)ccc3N=C2N1", "TGI": "> 100 µM"}
{"COMPOUND": "COc1ccc(C(=O)c2ccc(OC)c(OC)c2OC)cc1", "TGI": "> 100 µM"}
{"COMPOUND": "COc1ccccc1-n1c(-c2cc(O)ccc2C)cn2c3c(=O)[nH]c(=O)n(C)c3nc12", "TGI": "> 100 µM"}
{"COMPOUND": "COC(=O)C1(Cc2ccc3c(c2)CCC3)Cc2ccc3c(c2C1O)CCC3 (stereo not drawn)", "TGI": "26.9 µM"}
{"COMPOUND": "Cc1ccc(NC(=O)NC(=O)c2ccc([N+](=O)[O-])cc2[N+](=O)[O-])cc1Oc1ncc(Cl)cn1", "TGI": "20.5 µM"}
{"COMPOUND": "CCC(C)n1cc(C)c2c(C(=O)NCc3c(C)cc(C)[nH]c3=O)cc(Br)cc21 (stereo not drawn)", "TGI": "> 100 µM"}
{"COMPOUND": "COc1cccc(C2C(C#N)=C(N)Oc3cc(N)ccc32)c1 (stereo not drawn)", "TGI": "> 100 µM"}
{"COMPOUND": "Cc1c(CCOC=O)c(=O)[nH]c2nncn12", "TGI": "> 100 µM"}
